- studyTarget: T1, human glucose-dependent insulinotropic polypeptide receptor (human, UniProt P48546 22-466)
- T1 sequence (looked up): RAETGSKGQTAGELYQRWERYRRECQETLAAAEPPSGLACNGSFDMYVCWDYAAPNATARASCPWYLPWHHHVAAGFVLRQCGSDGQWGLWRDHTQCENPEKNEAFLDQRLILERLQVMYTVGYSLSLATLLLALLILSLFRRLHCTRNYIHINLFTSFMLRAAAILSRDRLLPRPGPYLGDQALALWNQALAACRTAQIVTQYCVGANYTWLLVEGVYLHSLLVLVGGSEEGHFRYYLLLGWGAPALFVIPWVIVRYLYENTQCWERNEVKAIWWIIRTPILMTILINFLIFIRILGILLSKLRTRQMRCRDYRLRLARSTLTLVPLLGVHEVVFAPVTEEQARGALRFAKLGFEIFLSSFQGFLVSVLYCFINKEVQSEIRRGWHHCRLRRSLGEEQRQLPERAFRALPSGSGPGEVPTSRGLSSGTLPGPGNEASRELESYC
- procedureText: cell-based or functional assay
Where no end group is shown, it is not given here. [ ]: non-standard residue; d: D form. Aib = CC(C)(N)C(=O)O
metric: hGIPR CRE Luc EC50 (pM)
# value in pM; strip the unit string

[ask] Identify measured hGIPR CRE Luc EC50 (pM) associated with Y[Aib]QGTFTSDYSIYLDKQAA[Aib]KFVQWLLEGGPSSGAPPPS-NH2 (not fully specified (residue 21); printed as Y-Aib-QGTFTSDYSIYLDKQAA-Aib-K[2-[2-[2-[[2-[2-[2-[[(4S)-4-carboxy-4-(17-carboxyheptadecanoylamino)butanoyl]amino]ethoxy]ethoxy]acetyl]amino]ethoxy]ethoxy]acetyl]-FVQWLLEGGPSSGAPPPS-NH2) [Compound No. 4]
[reply] 60.3
